Please respond with reported percentage of fluorescence quenching, Pep-PC+AC pH3 for every item in the list.
Assay: Dual quenching assay (acrylamide / 10-DN)
Type: physicochemical
Details: 235 mM acrylamide; 7 μM peptide, 2.1 mM POPC; pH 3
Peptide text beside a SMILES is read from it.

Query percentage of fluorescence quenching, Pep-PC+AC pH3 for O=C(O)CC[C@@H]1NC(=O)[C@H](Cc2c[nH]c3ccccc23)NC(=O)[C@H](CS)NC(=O)[C@H](Cc2c[nH]c3ccccc23)NC(=O)[C@H](CCC(=O)O)NC(=O)[C@H](Cc2c[nH]c3ccccc23)NC(=O)[C@H](CCC(=O)O)NC(=O)[C@H](Cc2c[nH]c3ccccc23)NC(=O)[C@H](CCC(=O)O)NC(=O)[C@H](Cc2c[nH]c3ccccc23)NC1=O [c[(WE)4WC]] (cyclo(CWEWEWEWEW))
50%

For the compound O=C(O)CC[C@@H]1NC(=O)[C@H](Cc2c[nH]c3ccccc23)NC(=O)[C@H](CS)NC(=O)[C@H](Cc2c[nH]c3ccccc23)NC(=O)[C@H](CCC(=O)O)NC(=O)[C@H](Cc2c[nH]c3ccccc23)NC(=O)[C@H](CCC(=O)O)NC(=O)[C@H](Cc2c[nH]c3ccccc23)NC(=O)[C@H](CCC(=O)O)NC(=O)[C@H](Cc2c[nH]c3ccccc23)NC(=O)[C@H](CCC(=O)O)NC(=O)[C@H](Cc2c[nH]c3ccccc23)NC1=O [c[(WE)5WC]] (cyclo(CWEWEWEWEWEW)) , report percentage of fluorescence quenching, Pep-PC+AC pH3.
68%

Name the recorded percentage of fluorescence quenching, Pep-PC+AC pH3 of the compound listed here: CC(C)C[C@@H]1NC(=O)[C@H](CS)NC(=O)[C@H](Cc2c[nH]c3ccccc23)NC(=O)[C@H](CCC(=O)O)NC(=O)[C@H](CC(C)C)NC(=O)[C@H](CCC(=O)O)NC(=O)[C@H](CC(C)C)NC(=O)[C@H](CCC(=O)O)NC(=O)[C@H](CC(C)C)NC(=O)[C@H](CCC(=O)O)NC1=O [c[(LE)4WC]] (cyclo(CLELELELEW))
59%

In one line, give reported percentage of fluorescence quenching, Pep-PC+AC pH3 of the entry O=C(O)CC[C@@H]1NC(=O)[C@H](Cc2c[nH]c3ccccc23)NC(=O)[C@H](CS)NC(=O)[C@H](Cc2c[nH]c3ccccc23)NC(=O)[C@H](CCC(=O)O)NC(=O)[C@H](Cc2c[nH]c3ccccc23)NC(=O)[C@H](CCC(=O)O)NC(=O)[C@H](Cc2c[nH]c3ccccc23)NC1=O [c[(WE)3WC]] (cyclo(CWEWEWEW)) .
63%

Given O=C(O)CC[C@@H]1NC(=O)[C@H](CS)NC(=O)[C@H](Cc2c[nH]c3ccccc23)NC(=O)[C@H](Cc2c[nH]c3ccccc23)NC(=O)[C@H](Cc2c[nH]c3ccccc23)NC(=O)[C@H](Cc2c[nH]c3ccccc23)NC(=O)[C@H](Cc2c[nH]c3ccccc23)NC(=O)[C@H](CCC(=O)O)NC(=O)[C@H](CCC(=O)O)NC(=O)[C@H](CCC(=O)O)NC1=O [c[E4W5C]] , respond with its percentage of fluorescence quenching, Pep-PC+AC pH3.
54%

====

Assay: Dual quenching assay (acrylamide / 10-DN)
Format: physicochemical
Conditions: 10% of lipids replaced by 10-DN; 7 μM peptide, 2.1 mM POPC; pH 8
Peptide text beside a SMILES is read from it.
Assignment: determine reported percentage of fluorescence quenching, Pep-PC+10-DN pH8 for the given compounds.
Report only the number, with the unit % understood.

Given O=C(O)CC[C@@H]1NC(=O)[C@H](CS)NC(=O)[C@H](Cc2c[nH]c3ccccc23)NC(=O)[C@H](Cc2c[nH]c3ccccc23)NC(=O)[C@H](Cc2c[nH]c3ccccc23)NC(=O)[C@H](Cc2c[nH]c3ccccc23)NC(=O)[C@H](Cc2c[nH]c3ccccc23)NC(=O)[C@H](CCC(=O)O)NC(=O)[C@H](CCC(=O)O)NC(=O)[C@H](CCC(=O)O)NC1=O [c[E4W5C]] , respond with its percentage of fluorescence quenching, Pep-PC+10-DN pH8.
49

Look up percentage of fluorescence quenching, Pep-PC+10-DN pH8 of O=C(O)CC[C@@H]1NC(=O)[C@H](Cc2c[nH]c3ccccc23)NC(=O)[C@H](CS)NC(=O)[C@H](Cc2c[nH]c3ccccc23)NC(=O)[C@H](CCC(=O)O)NC(=O)[C@H](Cc2c[nH]c3ccccc23)NC(=O)[C@H](CCC(=O)O)NC(=O)[C@H](Cc2c[nH]c3ccccc23)NC1=O [c[(WE)3WC]] (cyclo(CWEWEWEW)) and report it.
6

Respond only with percentage of fluorescence quenching, Pep-PC+10-DN pH8 recorded for CC(C)C[C@@H]1NC(=O)[C@H](CS)NC(=O)[C@H](Cc2c[nH]c3ccccc23)NC(=O)[C@H](CCC(=O)O)NC(=O)[C@H](CC(C)C)NC(=O)[C@H](CCC(=O)O)NC(=O)[C@H](CC(C)C)NC(=O)[C@H](CCC(=O)O)NC(=O)[C@H](CC(C)C)NC(=O)[C@H](CCC(=O)O)NC1=O [c[(LE)4WC]] (cyclo(CLELELELEW))
0

Dear colleague, please send me the reported percentage of fluorescence quenching, Pep-PC+10-DN pH8 for O=C(O)CC[C@@H]1NC(=O)[C@H](Cc2c[nH]c3ccccc23)NC(=O)[C@H](CS)NC(=O)[C@H](Cc2c[nH]c3ccccc23)NC(=O)[C@H](CCC(=O)O)NC(=O)[C@H](Cc2c[nH]c3ccccc23)NC(=O)[C@H](CCC(=O)O)NC(=O)[C@H](Cc2c[nH]c3ccccc23)NC(=O)[C@H](CCC(=O)O)NC(=O)[C@H](Cc2c[nH]c3ccccc23)NC(=O)[C@H](CCC(=O)O)NC(=O)[C@H](Cc2c[nH]c3ccccc23)NC1=O [c[(WE)5WC]] (cyclo(CWEWEWEWEWEW)) when you can.
13

====

Would you mind telling me the reported maximum position of the fluorescence spectrum λmax, Pep-PC, pH8 of each entry?
Assay: Steady-state tryptophan fluorescence and CD with and without POPC liposomes
Assay type: physicochemical
Conditions: with POPC liposomes pH 8; 5 μM peptide, 1.25 mM lipids; excitation 280 nm; 25 °C
Peptide text beside a SMILES is read from it.
Enter your answer as a number in nm; do not include the unit.

Please list maximum position of the fluorescence spectrum λmax, Pep-PC, pH8 recorded for the compound O=C(O)CC[C@@H]1NC(=O)[C@H](Cc2c[nH]c3ccccc23)NC(=O)[C@H](CS)NC(=O)[C@H](Cc2c[nH]c3ccccc23)NC(=O)[C@H](CCC(=O)O)NC(=O)[C@H](Cc2c[nH]c3ccccc23)NC(=O)[C@H](CCC(=O)O)NC(=O)[C@H](Cc2c[nH]c3ccccc23)NC1=O [c[(WE)3WC]] (cyclo(CWEWEWEW))
349.1

Supply reported maximum position of the fluorescence spectrum λmax, Pep-PC, pH8 belonging to this compound: O=C(O)CC[C@@H]1NC(=O)[C@H](Cc2c[nH]c3ccccc23)NC(=O)[C@H](CS)NC(=O)[C@H](Cc2c[nH]c3ccccc23)NC(=O)[C@H](CCC(=O)O)NC(=O)[C@H](Cc2c[nH]c3ccccc23)NC(=O)[C@H](CCC(=O)O)NC(=O)[C@H](Cc2c[nH]c3ccccc23)NC(=O)[C@H](CCC(=O)O)NC(=O)[C@H](Cc2c[nH]c3ccccc23)NC1=O [c[(WE)4WC]] (cyclo(CWEWEWEWEW))
347.5

Check the records and state maximum position of the fluorescence spectrum λmax, Pep-PC, pH8 for O=C(O)CC[C@@H]1NC(=O)[C@H](Cc2c[nH]c3ccccc23)NC(=O)[C@H](CS)NC(=O)[C@H](Cc2c[nH]c3ccccc23)NC(=O)[C@H](CCC(=O)O)NC(=O)[C@H](Cc2c[nH]c3ccccc23)NC(=O)[C@H](CCC(=O)O)NC(=O)[C@H](Cc2c[nH]c3ccccc23)NC(=O)[C@H](CCC(=O)O)NC(=O)[C@H](Cc2c[nH]c3ccccc23)NC(=O)[C@H](CCC(=O)O)NC(=O)[C@H](Cc2c[nH]c3ccccc23)NC1=O [c[(WE)5WC]] (cyclo(CWEWEWEWEWEW))
346.7

// fetch maximum position of the fluorescence spectrum λmax, Pep-PC, pH8 given entry CC(C)C[C@@H]1NC(=O)[C@H](CS)NC(=O)[C@H](Cc2c[nH]c3ccccc23)NC(=O)[C@H](CCC(=O)O)NC(=O)[C@H](CC(C)C)NC(=O)[C@H](CCC(=O)O)NC(=O)[C@H](CC(C)C)NC(=O)[C@H](CCC(=O)O)NC(=O)[C@H](CC(C)C)NC(=O)[C@H](CCC(=O)O)NC1=O [c[(LE)4WC]] (cyclo(CLELELELEW))
348.2

====

Experiment: Steady-state tryptophan fluorescence and CD with and without POPC liposomes
Format: physicochemical
Conditions: peptide in phosphate buffer pH 8, no liposomes; 5 μM peptide; excitation 280 nm; 25 °C
testReadout: maximum position of the fluorescence spectrum λmax, Pep, pH8 (nm)
Give the value, in units of nm, as a plain number.

Fill in maximum position of the fluorescence spectrum λmax, Pep, pH8 for record O=C(O)CC[C@@H]1NC(=O)[C@H](CS)NC(=O)[C@H](Cc2c[nH]c3ccccc23)NC(=O)[C@H](Cc2c[nH]c3ccccc23)NC(=O)[C@H](Cc2c[nH]c3ccccc23)NC(=O)[C@H](Cc2c[nH]c3ccccc23)NC(=O)[C@H](Cc2c[nH]c3ccccc23)NC(=O)[C@H](CCC(=O)O)NC(=O)[C@H](CCC(=O)O)NC(=O)[C@H](CCC(=O)O)NC1=O [c[E4W5C]]
350.6
